test system: MCF7; assay: Cytotoxicity against human MCF7 cells after 72 hrs by MTT assay; format: functional, cell-based; settings: MCF7, 72 h
property.name: pIC50
Recall that pIC50 is obtained by taking minus log10 of the concentration measured in molar.

Example entries and their recorded answers appear below.
compound	property.name	observed.measurement
CCCCCCCCCCCCCCCCOP(=O)([O-])OCC[N+]1(C)CCOCC1	pIC50	4.65
CCCCCCCCCCCCCCCCOP(=O)([O-])OCC[N+]1(C)CCCCCC1	pIC50	4.29
CCCCCCCCCCCCCCCC[N+]1(C)CCCCCCC1.[Br-]	pIC50	6.03
CCCCCCCCCCCCCCCC[N+](C)(CCCC)CCCC.[Br-]	pIC50	6.17

Exercise: Read off the recorded pIC50 for `CCCCCCCCCCCCCCCC[N+]1(C)CCCCC1.[Br-]`
Key: 6.23

Exercise: Read off the recorded pIC50 for `CCCCCCCCCCCCCCCC[N+]1(C)CCOCC1.[Br-]`
Key: 6.05

Exercise: Read off the recorded pIC50 for `CCCCCCCCCCCCCCCCOP(=O)([O-])OCC[N+]1(C)CCCCCCC1`
Key: 4.27

* * *

Reported log10 of IC50 values are given for each entry in this list.
tested on: HeLa; assay: Cytotoxicity against human HeLa cells after 72 hrs by MTT assay; type: functional, cell-based
In plain terms, each number is the log10 of measured IC50 in nM.

CCCCCCCCCCCCCCCC[N+]1(C)CCCCC1.[Br-] 3.17
CCCCCCCCCCCCCCCC[N+](C)(CC)CC.[Br-] 3.14
CCCCCCCCCCCCCCCCOP(=O)([O-])OCC[N+](C)(C)C 4.62
CCCCCCCCCCCCCCCCOP(=O)([O-])OCC[N+]1(C)CCCCC1 4.76
CCCCCCCCCCCCCCCC[N+]1(C)CCCCCCC1.[Br-] 3.16
CCCCCCCCCCCCCCCC[N+](C)(CCC)CCC.[Br-] 3.23
CCCCCCCCCCCCCCCC[N+](C)(CCCC)CCCC.[Br-] 2.95
CCCCCCCCCCCCCCCCOP(=O)([O-])OCC[N+]1(C)CCCCCCC1 4.74
CCCCCCCCCCCCCCCC[N+]1(C)CCOCC1.[Br-] 3.75
CCCCCCCCCCCCCCCC[N+]1(C)CCCCCC1.[Br-] 3.26

Let us examine a further case.
Exercise: Read off the recorded log10 of IC50 for `CCCCCCCCCCCCCCCCOP(=O)([O-])OCC[N+](C)(CCC)CCC`
Key: 4.74

* * *

Reported EC50 at 1 hr values are given for each entry in this list.
assay: Toxicity in human erythrocytes assessed as hemolysis after 1 hr; format: cell-based, Erythrocyte
Only the number, expressed in µM, is required.

Example entries and their recorded answers appear below.
CCCCCCCCCCCCCCCC[N+](C)(CCCC)CCCC.[Br-] 25
CCCCCCCCCCCCCCCC[N+]1(C)CCCCC1.[Br-] 35
CCCCCCCCCCCCCCCC[N+]1(C)CCCCCCC1.[Br-] 30
CCCCCCCCCCCCCCCCOP(=O)([O-])OCC[N+](C)(CC)CC 30

Exercise: Read off the recorded EC50 at 1 hr for `CCCCCCCCCCCCCCCC[N+]1(C)CCCC1.[Br-]`
Key: 35

Exercise: Read off the recorded EC50 at 1 hr for `CCCCCCCCCCCCCCCCOP(=O)([O-])OCC[N+](C)(C)C`
Key: 30

Exercise: Read off the recorded EC50 at 1 hr for `CCCCCCCCCCCCCCCC[N+]1(C)CCCCCC1.[Br-]`
Key: 35

Exercise: Read off the recorded EC50 at 1 hr for `CCCCCCCCCCCCCCCCOP(=O)([O-])OCC[N+]1(C)CCCCCC1`
Key: 25

Exercise: Read off the recorded EC50 at 1 hr for `CCCCCCCCCCCCCCCCOP(=O)([O-])OCC[N+]1(C)CCCC1`
Key: 30

Exercise: Read off the recorded EC50 at 1 hr for `CCCCCCCCCCCCCCCCOP(=O)([O-])OCC[N+]1(C)CCCCC1`
Key: 25

Exercise: Read off the recorded EC50 at 1 hr for `CCCCCCCCCCCCCCCC[N+](C)(CC)CC.[Br-]`
Key: 40

Exercise: Read off the recorded EC50 at 1 hr for `CCCCCCCCCCCCCCCCOP(=O)([O-])OCC[N+]1(C)CCOCC1`
Key: 30

Exercise: Read off the recorded EC50 at 1 hr for `CCCCCCCCCCCCCCCC[N+](C)(CCC)CCC.[Br-]`
Key: 30

Exercise: Read off the recorded EC50 at 1 hr for `CCCCCCCCCCCCCCCCOP(=O)([O-])OCC[N+](C)(CCC)CCC`
Key: 30

Exercise: Read off the recorded EC50 at 1 hr for `CCCCCCCCCCCCCCCC[N+]1(C)CCOCC1.[Br-]`
Key: 45

Exercise: Read off the recorded EC50 at 1 hr for `CCCCCCCCCCCCCCCCOP(=O)([O-])OCC[N+]1(C)CCCCCCC1`
Key: 30
